Protocol summary: Liver microsome stability, human
Type: in vitro ADME
Measurement conditions: human, liver microsomes; read-out: Microsomal Stability (t1/2; min) Hum.
Protocol: To examine potential for first-pass metabolism of analogs in the liver, the stability of analogs in the presence of liver microsome preparations (Eurofins Discovery for human, dog and rat; Xenotech for mouse) was measured using the method of Kuhnz, et al.[50]. for murine studies and Oback for the dog, human and rat studies. […] Half-lives were calculated using linear regression analysis of several time points.
Property label: half-life

Problem: Supply half-life value. Item: O=C(Nc1nnc(-c2ccc(F)cc2)o1)N1CCc2ccccc2C1
Solution: > 2 h

----------
Protocol summary: Mitochondrial toxicity assay, glucose vs galactose
Assay type: cell-based
Measurement conditions: human, HepG2 cells, HepG2; Galactose; Conc. (μM) 3.00E-05; 24 h
Property label: viability at 24 h, 30 µM (%)
Please state the figure in %; there is no need to write the unit.

Problem: In one line, give reported viability at 24 h, 30 µM of the entry O=C(Nc1nnc(-c2ccc(F)cc2)o1)N1CCc2ccccc2C1 .
Solution: 96.8
